Origin of measurements: the Deep4Chem optical property database

Assay: solvent given as SMILES
Details: in C1CCOC1
parameter: absorption maximum (nm)

{"smiles-string": "O=S(=O)(c1cccc(N2c3ccccc3Oc3ccccc32)c1)c1cccc(N2c3ccccc3Oc3ccccc32)c1", "result-unit": "nm", "reading": 317}
{"smiles-string": "N#Cc1c(N2CCCCC2)cc(-c2ccccc2)c2c1-c1ccccc1C2=O", "result-unit": "nm", "reading": 392}
{"smiles-string": "CCN(CC)c1ccc(C(=C(c2ccc(B(c3c(C)cc(C)cc3C)c3c(C)cc(C)cc3C)cc2)c2ccc(B(c3c(C)cc(C)cc3C)c3c(C)cc(C)cc3C)cc2)c2ccc(N(CC)CC)cc2)cc1", "result-unit": "nm", "reading": 431}
{"smiles-string": "N#Cc1c(N2CCCCC2)cc(-c2ccccc2)c2c1C(=O)c1ccccc1-2", "result-unit": "nm", "reading": 348}
